Tested on: BT-549
assay_conditions: single dose 10 μM; breast carcinoma
Give measured GI% for each item. Keep answers brief.
Write the answer as a number in %, unit excluded.

Requested read-out GI%, target or system BT-549, entry CC(=O)N1N=C(c2nc3ccccc3[nH]2)CC1c1cn(-c2ccccc2)nc1-c1cc2ccccc2o1 (centres unmarked) 9.21

What about c1ccc(C2=NNC(c3cn(-c4ccccc4)nc3-c3cc4ccccc4o3)C2)cc1 (centres unmarked) ? 0.80

What about COc1ccc(C2=NNC(c3cn(-c4ccccc4)nc3-c3cc4ccccc4o3)C2)cc1 (centres unmarked) ? 4.37

What about COc1ccc(C2=NN(C(C)=O)C(c3cn(-c4ccccc4)nc3-c3cc4ccccc4o3)C2)cc1OC (centres unmarked) ? 3.97

What about CC(=O)N1N=C(c2ccccc2)CC1c1cn(-c2ccccc2)nc1-c1cc2ccccc2o1 (centres unmarked) ? 9.06

---

tgt: c-Met (Homo sapiens, UniProt P08581)
Sequence (P08581 25-1390): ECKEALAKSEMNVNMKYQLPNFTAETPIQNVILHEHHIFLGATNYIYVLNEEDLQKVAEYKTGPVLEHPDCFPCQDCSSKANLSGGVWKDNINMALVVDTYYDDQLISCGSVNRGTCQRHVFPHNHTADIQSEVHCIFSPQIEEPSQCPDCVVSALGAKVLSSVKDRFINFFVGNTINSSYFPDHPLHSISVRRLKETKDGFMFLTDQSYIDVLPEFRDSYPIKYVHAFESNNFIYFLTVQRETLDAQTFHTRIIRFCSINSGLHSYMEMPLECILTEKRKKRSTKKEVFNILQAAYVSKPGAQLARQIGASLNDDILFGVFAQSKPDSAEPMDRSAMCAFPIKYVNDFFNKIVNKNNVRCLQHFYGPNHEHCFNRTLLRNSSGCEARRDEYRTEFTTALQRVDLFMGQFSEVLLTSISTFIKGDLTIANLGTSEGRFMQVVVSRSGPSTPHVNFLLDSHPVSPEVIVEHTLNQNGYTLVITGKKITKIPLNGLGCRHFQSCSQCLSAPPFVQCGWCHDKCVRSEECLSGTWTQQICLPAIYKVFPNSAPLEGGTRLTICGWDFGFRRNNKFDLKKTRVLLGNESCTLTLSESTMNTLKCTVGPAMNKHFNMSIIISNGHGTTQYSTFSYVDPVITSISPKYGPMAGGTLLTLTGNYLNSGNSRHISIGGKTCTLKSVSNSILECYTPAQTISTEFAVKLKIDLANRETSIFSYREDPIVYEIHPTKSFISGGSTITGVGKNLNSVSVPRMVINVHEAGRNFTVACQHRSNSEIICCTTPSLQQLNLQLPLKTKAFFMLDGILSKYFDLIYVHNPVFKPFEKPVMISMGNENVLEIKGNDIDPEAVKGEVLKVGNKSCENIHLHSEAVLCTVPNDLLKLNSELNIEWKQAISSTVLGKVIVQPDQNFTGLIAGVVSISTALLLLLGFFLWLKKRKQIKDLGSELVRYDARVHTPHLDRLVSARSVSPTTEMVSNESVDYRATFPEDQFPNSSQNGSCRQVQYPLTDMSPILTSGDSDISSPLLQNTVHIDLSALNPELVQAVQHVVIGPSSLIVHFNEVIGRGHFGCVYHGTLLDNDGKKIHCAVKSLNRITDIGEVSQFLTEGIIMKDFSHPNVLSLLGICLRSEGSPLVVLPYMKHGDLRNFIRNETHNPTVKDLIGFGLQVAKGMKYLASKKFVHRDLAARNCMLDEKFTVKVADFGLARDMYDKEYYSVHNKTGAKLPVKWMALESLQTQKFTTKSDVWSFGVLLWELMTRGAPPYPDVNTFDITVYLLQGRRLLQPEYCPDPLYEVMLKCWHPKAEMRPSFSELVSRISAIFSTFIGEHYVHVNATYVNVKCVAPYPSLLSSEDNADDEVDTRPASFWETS
value_type: IC50 (nM)
Write the answer as a number in nM, unit excluded.

Which value of IC50 has been reported for c1ccc(-n2cc(C3CC(c4nc5ccccc5[nH]4)=NN3)c(-c3cc4ccccc4o3)n2)cc1 (stereo not shown) in the records? 911

---

Test system: UACC-62
assay_conditions: single dose 10 μM; melanoma
Lab note: compare GI% with 7%, writing true (1) if less and false (0) if equal or more.

# check: GI% < 7% for c1ccc(C2=NNC(c3cn(-c4ccccc4)nc3-c3cc4ccccc4o3)C2)cc1 (stereo not drawn) [3a] false (0)

What about CC(=O)N1N=C(c2nc3ccccc3[nH]2)CC1c1cn(-c2ccccc2)nc1-c1cc2ccccc2o1 (stereo not drawn) [4d] ? true (1)

What about COc1ccc(C2=NNC(c3cn(-c4ccccc4)nc3-c3cc4ccccc4o3)C2)cc1OC (stereo not drawn) [3c] ? false (0)

What about COc1ccc(C2=NN(C(C)=O)C(c3cn(-c4ccccc4)nc3-c3cc4ccccc4o3)C2)cc1 (stereo not drawn) [4b] ? true (1)

What about COc1ccc(C2=NNC(c3cn(-c4ccccc4)nc3-c3cc4ccccc4o3)C2)cc1 (stereo not drawn) [3b] ? false (0)

What about CC(=O)N1N=C(c2ccccc2)CC1c1cn(-c2ccccc2)nc1-c1cc2ccccc2o1 (stereo not drawn) [4a] ? false (0)

---

tgt: VEGFR-2 (Homo sapiens, UniProt P35968)
Sequence (P35968 20-1356): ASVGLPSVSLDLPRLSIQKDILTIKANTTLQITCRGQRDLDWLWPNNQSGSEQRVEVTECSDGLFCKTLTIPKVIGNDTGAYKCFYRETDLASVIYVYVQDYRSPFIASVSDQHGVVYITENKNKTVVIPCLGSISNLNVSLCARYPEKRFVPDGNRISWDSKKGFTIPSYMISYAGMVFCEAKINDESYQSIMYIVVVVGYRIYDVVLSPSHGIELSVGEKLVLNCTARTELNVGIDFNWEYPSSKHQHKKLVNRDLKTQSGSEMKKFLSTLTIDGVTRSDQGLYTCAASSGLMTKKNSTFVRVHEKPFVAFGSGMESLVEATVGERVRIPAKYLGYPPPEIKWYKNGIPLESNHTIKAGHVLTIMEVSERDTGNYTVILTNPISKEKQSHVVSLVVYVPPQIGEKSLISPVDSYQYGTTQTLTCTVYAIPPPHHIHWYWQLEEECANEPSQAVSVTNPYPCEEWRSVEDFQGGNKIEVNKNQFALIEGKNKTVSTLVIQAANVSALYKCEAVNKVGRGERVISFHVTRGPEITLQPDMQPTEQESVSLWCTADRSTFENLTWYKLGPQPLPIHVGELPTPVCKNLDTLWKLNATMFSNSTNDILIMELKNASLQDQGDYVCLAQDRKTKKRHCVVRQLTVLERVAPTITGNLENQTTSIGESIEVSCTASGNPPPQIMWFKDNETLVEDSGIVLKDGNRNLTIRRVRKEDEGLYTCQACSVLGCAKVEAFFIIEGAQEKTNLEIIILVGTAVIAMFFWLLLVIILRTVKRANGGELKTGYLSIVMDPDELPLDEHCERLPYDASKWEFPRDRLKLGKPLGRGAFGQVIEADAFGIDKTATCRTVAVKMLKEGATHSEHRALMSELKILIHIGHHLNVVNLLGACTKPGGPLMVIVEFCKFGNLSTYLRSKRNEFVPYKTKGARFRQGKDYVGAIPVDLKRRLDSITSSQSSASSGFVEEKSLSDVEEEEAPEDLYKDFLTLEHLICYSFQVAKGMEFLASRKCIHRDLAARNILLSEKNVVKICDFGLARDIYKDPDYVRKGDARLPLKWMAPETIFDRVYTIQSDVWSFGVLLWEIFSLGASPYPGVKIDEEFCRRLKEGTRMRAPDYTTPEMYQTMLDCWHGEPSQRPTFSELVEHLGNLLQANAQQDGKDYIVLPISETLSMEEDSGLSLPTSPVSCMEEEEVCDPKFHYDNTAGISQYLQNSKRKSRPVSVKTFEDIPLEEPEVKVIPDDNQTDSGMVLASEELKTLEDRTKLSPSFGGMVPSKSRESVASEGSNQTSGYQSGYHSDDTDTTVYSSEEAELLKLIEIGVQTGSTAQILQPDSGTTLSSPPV
value_type: IC50 (nM)
Write the answer as a number in nM, unit excluded.

Which value of IC50 has been reported for c1ccc(-n2cc(C3CC(c4nc5ccccc5[nH]4)=NN3)c(-c3cc4ccccc4o3)n2)cc1 (stereo not shown) in the records? 619

All figures here come from paper PMC12486440.
